- test-system: full length human PD-1 on HEK293/hPD-1 cells (human, UniProt Q15116 25-288)
- Sequence (Q15116 25-288 limits assumed): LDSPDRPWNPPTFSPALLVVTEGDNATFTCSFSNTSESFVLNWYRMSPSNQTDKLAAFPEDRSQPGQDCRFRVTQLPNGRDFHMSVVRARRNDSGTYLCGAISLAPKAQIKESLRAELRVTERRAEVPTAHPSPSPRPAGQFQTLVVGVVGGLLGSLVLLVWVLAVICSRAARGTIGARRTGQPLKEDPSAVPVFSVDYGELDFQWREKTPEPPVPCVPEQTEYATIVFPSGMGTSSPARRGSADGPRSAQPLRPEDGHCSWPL
- method-summary: FACS, 100 nM mAb
Answer each item with its documented ratio of MFI HEK293/hPD-1 to HEK293 parental cells.
Could you keep your reply to the number by itself?

Query: ratio of MFI HEK293/hPD-1 to HEK293 parental cells for H2aM7791N (antibody, V domains shown, human variable regions, mouse IgG2a Fc; also called H2M7791N) VH: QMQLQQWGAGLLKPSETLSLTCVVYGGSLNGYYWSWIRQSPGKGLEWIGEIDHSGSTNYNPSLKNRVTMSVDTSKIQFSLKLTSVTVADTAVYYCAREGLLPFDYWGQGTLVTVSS VL: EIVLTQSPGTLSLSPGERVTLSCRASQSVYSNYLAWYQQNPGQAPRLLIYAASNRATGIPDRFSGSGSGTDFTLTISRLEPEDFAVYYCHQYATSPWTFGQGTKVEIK ?
Reply: 18

Query: ratio of MFI HEK293/hPD-1 to HEK293 parental cells for H1M7800N (antibody, V domains shown, human variable regions, mouse IgG1 Fc) VH: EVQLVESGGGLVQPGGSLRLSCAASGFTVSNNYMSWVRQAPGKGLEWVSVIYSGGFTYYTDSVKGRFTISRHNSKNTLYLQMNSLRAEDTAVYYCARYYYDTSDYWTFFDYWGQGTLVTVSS VL: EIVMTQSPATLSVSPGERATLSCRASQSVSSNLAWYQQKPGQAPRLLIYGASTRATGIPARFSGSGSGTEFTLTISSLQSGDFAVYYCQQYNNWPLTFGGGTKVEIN ?
Reply: 24.7

Query: ratio of MFI HEK293/hPD-1 to HEK293 parental cells for H2aM7780N (antibody, V domains shown, human variable regions, mouse IgG2a Fc; also called H2M7780N) VH: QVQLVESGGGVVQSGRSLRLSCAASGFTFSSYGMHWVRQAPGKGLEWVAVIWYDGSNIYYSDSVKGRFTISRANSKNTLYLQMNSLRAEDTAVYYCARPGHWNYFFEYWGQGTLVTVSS VL: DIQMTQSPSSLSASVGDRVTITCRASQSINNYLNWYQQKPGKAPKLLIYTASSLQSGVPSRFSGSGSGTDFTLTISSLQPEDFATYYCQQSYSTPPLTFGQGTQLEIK ?
Reply: 73.8
